target: DDR1 kinase (Homo sapiens, UniProt Q08345); test: Evaluation of DDR1 kinase inhibition (LANCE Ultra TR-FRET kinase assay); assay type: biochemical; parameters: purchased Carna Biosciences 08-113; settings: DDR1 protein 0.5 nM, LANCE Ultra ULight-poly GAT substrate, 2 hours at room temperature, duplicate; read-out: DDR-1 IC50
Sequence (Q08345 19-876 isoform Q08345-2 limits assumed): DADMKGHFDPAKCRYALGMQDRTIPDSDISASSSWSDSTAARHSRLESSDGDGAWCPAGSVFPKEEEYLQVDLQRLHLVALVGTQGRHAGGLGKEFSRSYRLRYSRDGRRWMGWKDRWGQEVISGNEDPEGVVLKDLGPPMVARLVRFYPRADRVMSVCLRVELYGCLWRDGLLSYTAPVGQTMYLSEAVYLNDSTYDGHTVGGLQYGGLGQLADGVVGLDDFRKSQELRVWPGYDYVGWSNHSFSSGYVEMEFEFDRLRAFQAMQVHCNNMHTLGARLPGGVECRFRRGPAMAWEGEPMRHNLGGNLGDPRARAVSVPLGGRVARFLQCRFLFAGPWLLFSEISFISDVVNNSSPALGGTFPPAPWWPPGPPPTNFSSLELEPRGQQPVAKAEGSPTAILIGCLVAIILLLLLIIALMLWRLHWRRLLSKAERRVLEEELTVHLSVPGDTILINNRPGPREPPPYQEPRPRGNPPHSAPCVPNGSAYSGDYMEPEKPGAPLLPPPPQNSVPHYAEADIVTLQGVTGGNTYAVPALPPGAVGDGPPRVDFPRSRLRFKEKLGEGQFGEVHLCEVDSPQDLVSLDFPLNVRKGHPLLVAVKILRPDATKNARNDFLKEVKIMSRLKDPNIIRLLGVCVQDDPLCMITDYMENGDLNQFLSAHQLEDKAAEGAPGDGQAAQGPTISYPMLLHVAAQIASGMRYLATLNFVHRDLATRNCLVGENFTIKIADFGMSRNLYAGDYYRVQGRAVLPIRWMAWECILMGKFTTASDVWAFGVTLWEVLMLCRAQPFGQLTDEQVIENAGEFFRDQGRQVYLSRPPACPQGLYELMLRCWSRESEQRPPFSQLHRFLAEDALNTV
VALUE_KIND: IC50 (nM)

Consider the following illustrative entries.
{"columns": ["COMPOUND", "READOUT_UNIT", "ASSAY_RESULT"],
 "data": [
  ["COC[C@@H]1CCCN1C(=O)Cn1nc(C2CN(C(=O)c3ccnc(N)c3)C2)c2ccccc21", "nM", 9],
  ["Cc1ccnc2c1c(C1CN(C(=O)c3ccnc(N)c3)C1)nn2CC(=O)N1CCC[C@H]1C(F)(F)F", "nM", 210],
  ["Nc1ncc(F)c(C(=O)N2CC(c3nn(CC(=O)N4CCC[C@H]4C(F)(F)F)c4ccccc34)C2)n1", "nM", 5.6],
  ["CC1(C)CCCN1C(=O)Cn1nc(C2CN(C(=O)c3ccnc(N)c3)C2)c2c(F)cc(F)cc21", "nM", 11],
  ["O=C(c1ccc2[nH]ncc2n1)N1CC(c2nn(CC(=O)N3CCC[C@H]3C(F)(F)F)c3cc(F)cc(F)c23)C1", "nM", 5],
  ["Nc1cc(C(=O)N2CC(c3nn(CC(=O)NC4CC5CCC4C5)c4cccc(F)c34)C2)ccn1 (stereo not drawn)", "nM", 5.6],
  ["Nc1nccc(C(=O)N2CC(c3nn(CC(=O)N4CCC[C@H]4C(F)(F)F)c4ccc(Cl)cc34)C2)n1", "nM", 1.6],
  ["COCC(C)(C)NC(=O)Cn1nc(C2CN(C(=O)c3ccnc(N)c3)C2)c2ccccc21", "nM", 170],
  ["O=C(c1ccnc2[nH]ncc12)N1CC(c2nn(CC(=O)N3CCC[C@H]3C(F)(F)F)c3cc(F)cc(F)c23)C1", "nM", 0.3],
  ["Nc1cc(C(=O)N2CC(c3nn(CC(=O)N4CCC[C@@H]4CO)c4cc(F)cc(F)c34)C2)ccn1", "nM", 270]
]}

1: Nc1cc(C(=O)N2CC(c3nn(CC(=O)NCC(F)F)c4cccc(F)c34)C2)ccn1
2: CC(C)N(C)C(=O)Cn1nc(C2CN(C(=O)c3cc(N)ncc3F)C2)c2ccccc21
Please indicate which has the smaller reported IC50: 1 , or 2 . Kindly give the label for the entry you pick.
2
(2: 9.5 nM, 1: 30 nM)

P: O=C(C1CCOCC1)N1CC(c2nn(CC(=O)N3CCC[C@H]3C(F)(F)F)c3cc(F)cc(F)c23)C1
Q: Nc1nccc(C(=O)N2CC(c3nn(CC(=O)N4CCO[C@@H](C(F)(F)F)C4)c4ccccc34)C2)c1F
Please indicate which has the smaller reported IC50: P , or Q . Kindly give the label for the entry you pick.
Q

---

biological target: DDR1 kinase (Homo sapiens, UniProt Q08345); assay: Evaluation of DDR1 kinase inhibition in DDR1-expressing U2OS cells (type I collagen stimulation, PathHunter detection); assay type: cell-based; design: host or cells: U2OS; details: type I collagen 50 µg/mL stimulation, duplicate, read-out: DDR-1 IC50
Sequence (Q08345 19-913): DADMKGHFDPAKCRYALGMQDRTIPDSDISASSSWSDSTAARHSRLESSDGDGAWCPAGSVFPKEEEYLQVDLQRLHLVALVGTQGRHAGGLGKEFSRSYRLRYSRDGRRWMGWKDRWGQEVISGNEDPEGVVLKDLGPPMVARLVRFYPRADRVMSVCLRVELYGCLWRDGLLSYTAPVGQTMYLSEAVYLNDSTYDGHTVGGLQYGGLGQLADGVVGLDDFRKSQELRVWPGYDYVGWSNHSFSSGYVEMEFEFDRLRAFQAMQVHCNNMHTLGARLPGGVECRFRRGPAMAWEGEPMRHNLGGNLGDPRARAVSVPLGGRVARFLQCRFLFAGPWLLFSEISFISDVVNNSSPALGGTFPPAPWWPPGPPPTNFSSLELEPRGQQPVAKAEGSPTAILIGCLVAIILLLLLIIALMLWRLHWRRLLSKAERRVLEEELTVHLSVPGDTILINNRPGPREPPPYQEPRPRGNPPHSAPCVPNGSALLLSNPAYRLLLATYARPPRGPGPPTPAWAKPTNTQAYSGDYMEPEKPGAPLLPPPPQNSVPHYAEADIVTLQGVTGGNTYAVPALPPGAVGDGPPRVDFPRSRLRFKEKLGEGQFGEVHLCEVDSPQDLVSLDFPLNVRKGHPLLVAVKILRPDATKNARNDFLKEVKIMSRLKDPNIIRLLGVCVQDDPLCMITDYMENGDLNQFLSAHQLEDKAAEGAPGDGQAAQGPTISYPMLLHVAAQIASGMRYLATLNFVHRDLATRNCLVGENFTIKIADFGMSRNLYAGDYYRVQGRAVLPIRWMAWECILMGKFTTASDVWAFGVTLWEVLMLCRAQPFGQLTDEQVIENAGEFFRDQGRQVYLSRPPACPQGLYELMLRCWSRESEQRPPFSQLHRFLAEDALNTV
pIC50: −log10 of the molar value.
VALUE_KIND: pIC50

{"columns": ["COMPOUND", "pIC50"],
 "data": [
  ["Cc1ccc2c(n1)c(C1CN(C(=O)c3cc(N)ncc3F)C1)nn2CC(=O)N1CCOCC1(C)C [Compound E-186, p-toluenesulfonate]", 6.16],
  ["Cc1c(C(=O)N2CC(c3nn(CC(=O)N4CCO[C@@H](C(F)(F)F)C4)c4cncc(F)c34)C2)ccnc1N [Compound E-180]", 5.52],
  ["Nc1cc(C(=O)N2CC(c3nn(CC(=O)NCC(F)(F)F)c4ccccc34)C2)ccn1 [Compound E-211]", 6.54]
]}

a: Nc1cc(C(=O)N2CC(c3nn(Cc4nc(C(F)(F)F)no4)c4ccccc34)C2)ccn1 [Compound E-218]
b: Nc1cc(C(=O)N2CC(c3nn(CC(=O)N4CCC[C@H]4C(F)F)c4ccccc34)C2)c(F)cn1 [Compound E-272]
Name the one with the greater pIC50 value, either a or b as given. Kindly give the label for the entry you pick.
b
(b: 8.52, a: 7.13)

a: Nc1nccc(C(=O)N2CC(c3nn(CC(=O)N4CCC[C@H]4C(F)(F)F)c4cc(F)cc(F)c34)C2)n1 [Compound E-129]
b: C[C@H](N(C)C(=O)Cn1nc(C2CN(C(=O)c3cc(N)ncc3F)C2)c2ccccc21)C(F)(F)F [Compound E-261]
Please indicate which has the smaller reported pIC50: a , or b . Kindly give the label for the entry you pick.
a

---

biological target: UniProtKB Q08345; assay: Evaluation of DDR1 kinase inhibition (LANCE Ultra TR-FRET kinase assay); type: biochemical; design: purchased Carna Biosciences 08-113; settings: DDR1 protein 0.5 nM, LANCE Ultra ULight-poly GAT substrate, 2 hours at room temperature, duplicate; read-out: DDR-1 IC50
VALUE_KIND: IC50 (nM)

Consider the following illustrative entries.
{"columns": ["COMPOUND", "ASSAY_RESULT"],
 "data": [
  ["Nc1cc(C(=O)N2CC(c3nn(CC(=O)N4CCCC4)c4cc(F)cc(F)c34)C2)ccn1", 100],
  ["CC1(C)COCCN1C(=O)Cn1nc(C2CN(C(=O)c3ccnc(N)c3F)C2)c2ccccc21", 7.5],
  ["Nc1cc(C(=O)N2CC(c3nn(Cc4nc(-c5ccc(F)cc5)no4)c4cccc(F)c34)C2)ccn1", 5.2],
  ["N#C[C@@H]1CCCN1C(=O)Cn1nc(C2CN(C(=O)c3cc(N)ncc3F)C2)c2ccccc21", 4.8],
  ["Cc1ccc2c(n1)c(C1CN(C(=O)c3ccnc(NC4CC4)c3)C1)nn2CC(=O)N1CCC[C@H]1C(F)(F)F", 5.7],
  ["Nc1cc(C(=O)N2CCC(c3nn(CC(=O)N4CCC[C@H]4C(F)(F)F)c4ccccc34)CC2)c(F)cn1", 9.9]
]}

I: Nc1cc(C(=O)N2CC(c3nn(CC(=O)N4CCC[C@H]4C(F)(F)F)c4ccccc34)C2)c(F)cn1
II: Nc1cc(C(=O)N2CC(c3nn(CC(=O)NCCOC(F)(F)F)c4ccccc34)C2)ccn1
Please indicate which has the smaller reported IC50: I , or II . Kindly give the label for the entry you pick.
I

a: CN(CC(F)(F)F)C(=O)Cn1nc(C2CN(C(=O)c3cc(N)ncc3F)C2)c2ccccc21
b: Nc1cc(C(=O)N2CC(c3nn(CC(=O)NC4CC4(F)F)c4ccccc34)C2)c(F)cn1 (stereo not drawn)
Name the one with the greater IC50 value, either a or b as given. Kindly give the label for the entry you pick.
b

1: Cc1c(C(=O)N2CC(c3nn(CC(=O)N4CCC[C@H]4C(F)(F)F)c4ccnc(C)c34)C2)ccnc1N
2: Cl.Nc1cc(C(=O)N2CC(c3nn(CC(=O)N4CCC[C@H]4C(F)(F)F)c4cc(F)cc(F)c34)C2)ccn1 [Compound E-2, hydrochloride]
Please indicate which has the smaller reported IC50: 1 , or 2 . Kindly give the label for the entry you pick.
2
(2: 1.6 nM, 1: 150 nM)

P: CC1(c2nn(CC(=O)N3CCC[C@H]3C(F)(F)F)c3ccccc23)CN(C(=O)c2ccnc(N)c2)C1
Q: CN(CC(F)(F)F)C(=O)Cn1nc(C2CN(C(=O)c3ccnc(N)n3)C2)c2cc(Cl)ccc21
Please indicate which has the smaller reported IC50: P , or Q . Kindly give the label for the entry you pick.
Q

---

molecular target: DDR1 kinase (Homo sapiens); test: Evaluation of DDR1 kinase inhibition in DDR1-expressing U2OS cells (type I collagen stimulation, PathHunter detection); type: cell-based; parameters: host or cells: U2OS; details: type I collagen 50 µg/mL stimulation, duplicate, read-out: DDR-1 IC50
Counter-ions that a name gives are not always drawn.
VALUE_KIND: IC50 (nM)

{"columns": ["COMPOUND", "ASSAY_RESULT"],
 "data": [
  ["O=C(c1cnc(NC2CC2)s1)N1CC(c2nn(CC(=O)N3CCC[C@H]3C(F)(F)F)c3cc(F)cc(F)c23)C1 [Compound E-98]", 3700],
  ["O=C(c1cnn2ccsc12)N1CC(c2nn(CC(=O)N3CCC[C@H]3C(F)(F)F)c3cc(F)cc(F)c23)C1 [Compound E-102]", 3300]
]}

1: Cn1nccc1NC(=O)Cn1nc(C2CN(C(=O)c3cc(N)ncc3F)C2)c2ccccc21 [Compound E-247]
2: CN(CC1CC1)C(=O)Cn1nc(C2CN(C(=O)c3ccnc(N)c3)C2)c2ccccc21 [Compound E-229]
3: Nc1cc(C(=O)N2CC(c3nn(Cc4nc(C(F)(F)F)no4)c4ccccc34)C2)c(F)cn1 [Compound E-18]
4: Nc1cc(C(=O)N2CC(c3nn(C(F)C(=O)N4CCC[C@H]4C(F)(F)F)c4cc(F)cc(F)c34)C2)ccn1 (stereo partly shown) [Compound E-107]
5: Nc1cc(C(=O)N2CC(c3nn(CC(=O)NCC(F)(F)F)c4ccc(F)c(Br)c34)C2)ccn1 [Compound E-70, hydrochloride]
Hello, I need these entries ordered by IC50, highest reading first. Thanks! Return the labels ranked in the requested order, please.
4, 1, 5, 2, 3

P: Nc1cc(C(=O)N2CCC(c3nn(CC(=O)N4CCO[C@H](C(F)(F)F)C4)c4cccc(F)c34)CC2)ccn1 [Compound E-90]
Q: Cc1ccc2c(n1)c(C1CN(C(=O)c3ccnc(N)c3)C1)nn2CC(=O)N1CCC[C@H]1C(F)(F)F [Compound E-12]
Name the one with the greater IC50 value, either P or Q as given. Kindly give the label for the entry you pick.
Q

1: CN(CC(F)(F)F)C(=O)Cn1nc(C2CN(C(=O)c3ccnc(N)c3)C2)c2c(F)cccc21 [Compound E-87]
2: Cc1c(C(=O)N2CC(c3nn(CC(=O)N4CCO[C@H](C(F)(F)F)C4)c4cc(F)cc(F)c34)C2)ccnc1N [Compound E-89, hydrochloride]
Please indicate which has the smaller reported IC50: 1 , or 2 . Kindly give the label for the entry you pick.
1
